Each item that follows carries a reported IC50.
Target: CD73 activity in U138-MG cells (Homo sapiens (Human))
Sequence (P21589 27-574): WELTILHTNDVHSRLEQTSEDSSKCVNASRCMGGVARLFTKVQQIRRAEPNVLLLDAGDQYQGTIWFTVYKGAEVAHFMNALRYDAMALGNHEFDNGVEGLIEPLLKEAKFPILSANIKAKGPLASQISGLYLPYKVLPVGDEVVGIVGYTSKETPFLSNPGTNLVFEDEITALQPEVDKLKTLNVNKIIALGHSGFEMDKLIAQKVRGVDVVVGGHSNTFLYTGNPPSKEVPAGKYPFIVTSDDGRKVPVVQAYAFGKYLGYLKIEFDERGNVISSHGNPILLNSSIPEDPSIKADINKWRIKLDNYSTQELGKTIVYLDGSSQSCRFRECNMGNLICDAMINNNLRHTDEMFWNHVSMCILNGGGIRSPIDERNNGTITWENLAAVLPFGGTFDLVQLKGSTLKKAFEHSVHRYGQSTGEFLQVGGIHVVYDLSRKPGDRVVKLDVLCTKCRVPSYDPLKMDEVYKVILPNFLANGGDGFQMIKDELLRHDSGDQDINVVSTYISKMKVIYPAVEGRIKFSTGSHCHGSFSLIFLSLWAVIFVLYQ
Assay: U138-MG inhibition assay (inorganic phosphate from AMP, PiColorLock Gold)
Details: 100 μM AMP, 30 min pre-incubation, 1 hour at 37° C.
measurement-label: IC50

compound	reported
CC1(C)CN(c2ncnc3nc(-c4c[nH]c(=O)[nH]c4=O)sc23)CC1(F)F	66 nM
CC1(C)CN(c2ncc(C#N)c3nn(-c4c[nH]c(=O)[nH]c4=O)cc23)CC1(F)F	8 nM
COC1CN(c2ncnc3nn(-c4c[nH]c(=O)[nH]c4=O)cc23)CC1(F)F (stereo not shown)	3.2 nM
O=C(OC1CN(c2ncnc3oc(-c4c[nH]c(=O)[nH]c4=O)cc23)CC1(F)F)N1CC2CCC(C1)O2 (stereo not shown)	61.9 nM
